# Tested on: HL-60
# assay: NCI tumour cell line growth inhibition, 48 h
The source made the active and inactive calls. Cut-off read from the data, not from the text of the source: active = GI50 up to about 1.1 µM and inactive = higher.
Write down the outcome that applies. Available outcomes: active, inactive

INSERT INTO measurements (molecule, assigned_category) VALUES
  ('O=c1oc2cc(O)ccc2c(O)c1C(c1ccccc1F)c1c(O)c2ccc(O)cc2oc1=O', 'inactive'),
  ('CC(=O)N1c2ccccc2C23CCN4CC5=CCOC(O)C(C5CC42)C13 (stereo unspecified)', 'inactive'),
  ('C=CC(=O)NC(O)(C(=O)OCC)C(F)(F)F (stereo unspecified)', 'inactive'),
  ('CC(C(=O)n1c2ccccc2c2ccccc21)N(c1ccccc1)c1ccccc1 (stereo unspecified)', 'inactive'),
  ('Oc1c2cc(Cl)cc1COCc1cc(Cl)cc(c1O)COCc1cc(Cl)cc(c1O)COC2', 'inactive');

Next item in the queue.
Which result was noted for this molecule in the test: O=C(Cn1c(C(=O)/C=C/c2ccco2)nc2ccccc21)c1ccc(Cl)cc1 inactive

Origin of values: ChEMBL document CHEMBL1201862
